# Target Desc: DPP1 in HL-60 cells (Homo sapiens, UniProt P53634)
# Sequence (P53634 25-463): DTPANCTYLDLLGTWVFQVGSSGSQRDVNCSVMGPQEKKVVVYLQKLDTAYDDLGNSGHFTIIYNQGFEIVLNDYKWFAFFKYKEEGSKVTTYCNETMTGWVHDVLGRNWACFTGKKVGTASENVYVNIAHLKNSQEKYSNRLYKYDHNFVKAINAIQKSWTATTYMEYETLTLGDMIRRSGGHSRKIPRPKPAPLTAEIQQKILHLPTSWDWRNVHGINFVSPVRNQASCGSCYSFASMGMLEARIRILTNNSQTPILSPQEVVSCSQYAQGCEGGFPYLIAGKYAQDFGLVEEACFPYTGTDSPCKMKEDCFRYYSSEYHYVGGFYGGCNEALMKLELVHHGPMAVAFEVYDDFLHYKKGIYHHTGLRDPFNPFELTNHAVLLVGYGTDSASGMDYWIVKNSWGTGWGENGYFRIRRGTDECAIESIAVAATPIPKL
# Assay Details: DPP1 Cell Single-Point Percent Inhibition Testing
# Format: cell-based
# Design: host or cells: HL-60 cells
# Run Parameters: final compound concentration 5 nM, n = 1
Here, each record is paired with measured inhibition at 0.005 µM data.

{"Compound": "C[C@@H]1NC[C@@H](C(=O)N[C@H](C#N)Cc2ccc(-c3ccn4ccnc4c3)cc2)OC[C@H]1O [Compound H42]", "Target Desc": "DPP1 in HL-60 cells (Homo sapiens, UniProt P53634)", "inhibition at 0.005 µM": "≤ 76.5%"}
{"Compound": "CO[C@@H]1CCNC[C@@H](C(=O)N[C@H](C#N)Cc2ccc(-c3ccc4cnn(C5CCN(C)CC5)c4c3)cc2)OC1 [Compound H3]", "Target Desc": "DPP1 in HL-60 cells (Homo sapiens, UniProt P53634)", "inhibition at 0.005 µM": "≤ 76.5%"}
{"Compound": "Cc1ncc(C)n2cc(-c3ccc(C[C@@H](C#N)NC(=O)[C@@H]4CN[C@@H](C)[C@@H](O)CO4)cc3)cc12 [Compound A134]", "Target Desc": "DPP1 in HL-60 cells (Homo sapiens, UniProt P53634)", "inhibition at 0.005 µM": "≤ 76.5%"}
{"Compound": "CO[C@@H]1CCNC[C@@H](C(=O)N[C@H](C#N)Cc2ccc(-c3ccc(CN4CCN(C)CC4)cc3)cc2)OC1 [Compound F10]", "Target Desc": "DPP1 in HL-60 cells (Homo sapiens, UniProt P53634)", "inhibition at 0.005 µM": "≤ 76.5%"}
{"Compound": "C[C@@H]1NC[C@@H](C(=O)N[C@H](C#N)Cc2ccc(-c3ccc4cnn(C5CCN(C)CC5)c4c3)cc2)OC[C@H]1O [Compound H21]", "Target Desc": "DPP1 in HL-60 cells (Homo sapiens, UniProt P53634)", "inhibition at 0.005 µM": "≤ 76.5%"}
{"Compound": "Cn1ncc2ccc(-c3ccc(C[C@@H](C#N)NC(=O)[C@@H]4CNCCCCO4)c(F)c3)cc21 [Compound H37]", "Target Desc": "DPP1 in HL-60 cells (Homo sapiens, UniProt P53634)", "inhibition at 0.005 µM": "≤ 76.5%"}
{"Compound": "COC1CNC[C@@H](C(=O)N[C@H](C#N)Cc2ccc(-c3ccc4cnn(C)c4c3)cc2)OC1 (some centres unmarked) [Compound H11]", "Target Desc": "DPP1 in HL-60 cells (Homo sapiens, UniProt P53634)", "inhibition at 0.005 µM": "76.5 to 93.9%"}
{"Compound": "COC1CNC[C@@H](C(=O)N[C@H](C#N)Cc2ccc(-c3cc4c(C)nc(C)cn4c3)cc2)OC1 (some centres unmarked) [Compound A86]", "Target Desc": "DPP1 in HL-60 cells (Homo sapiens, UniProt P53634)", "inhibition at 0.005 µM": "≤ 76.5%"}
{"Compound": "CO[C@H]1CCO[C@H](C(=O)N[C@H](C#N)Cc2ccc(-c3ccc4c(c3)C3(CN(C)C3)OC4=O)cc2)CNC1 [Compound F20]", "Target Desc": "DPP1 in HL-60 cells (Homo sapiens, UniProt P53634)", "inhibition at 0.005 µM": "≤ 76.5%"}
{"Compound": "C[C@@H]1NC[C@@H](C(=O)N[C@H](C#N)Cc2ccc(-c3ccc4cnn(C5CCN(C)CC5)c4c3)cc2)OC[C@@H]1O [Compound H27]", "Target Desc": "DPP1 in HL-60 cells (Homo sapiens, UniProt P53634)", "inhibition at 0.005 µM": "≤ 76.5%"}
{"Compound": "COC1CNC[C@@H](C(=O)N[C@H](C#N)Cc2ccc(-c3ccc4nnn(C)c4c3)cc2F)OC1 (some centres unmarked) [Compound H14]", "Target Desc": "DPP1 in HL-60 cells (Homo sapiens, UniProt P53634)", "inhibition at 0.005 µM": "76.5 to 93.9%"}
{"Compound": "CCN1C(=O)Cc2ccc(-c3ccc(C[C@@H](C#N)NC(=O)[C@@H]4CNCC(OC)CO4)cc3)cc21 (some centres unmarked) [Compound G3]", "Target Desc": "DPP1 in HL-60 cells (Homo sapiens, UniProt P53634)", "inhibition at 0.005 µM": "76.5 to 93.9%"}
{"Compound": "COC1CNC[C@@H](C(=O)N[C@H](C#N)Cc2ccc(-c3cc4c(C)ncc(C)n4c3)cc2)OC1 (some centres unmarked) [Compound A125]", "Target Desc": "DPP1 in HL-60 cells (Homo sapiens, UniProt P53634)", "inhibition at 0.005 µM": "≥ 93.9%"}
{"Compound": "CN1CCC(n2ncc3ccc(-c4ccc(C[C@@H](C#N)NC(=O)[C@@H]5CNCCCCO5)c(F)c4)cc32)CC1 [Compound H34]", "Target Desc": "DPP1 in HL-60 cells (Homo sapiens, UniProt P53634)", "inhibition at 0.005 µM": "≤ 76.5%"}
